Note to self: class labels come from recorded flash point, ranges listed here: low bin: < 50 °C; mid bin: ≥ 50 °C and < 100 °C; high bin: ≥ 100 °C

Problem: Record ClC[Si](Cl)(Cl)Cl — which class?
Result: mid bin

Problem: Would you mind sorting CNCCCN into the appropriate category?
Result: low bin

Problem: Kindly identify the class of CCOC(C)(C)C .
Result: low bin

Problem: Could you tell me which band CCCCCCC=O belongs to?
Result: low bin

Problem: // return the class label for CCCCCCCCC
Result: low bin

Problem: Record CCCCOCCOP(=O)(OCCOCCCC)OCCOCCCC [tris(2-butoxyethyl) phosphate] — which class?
Result: high bin

Problem: Hey, which category is CCCCCCCCCCCCCCCCCCCCC in, do you know?
Result: high bin

Problem: Lab log: C=CCOC(C)=O [prop-2-enyl acetate] — assign flash point category
Result: low bin

Problem: Please let me know in which category the item CO belongs.
Result: low bin

Problem: Exam item: assign CCOC(=O)C(C)O (configuration not stated) [ethyl 2-hydroxypropanoate] to the correct category.
Result: low bin

Problem: Pick a category. Item: Cc1cccc(N)c1
Result: mid bin

Problem: Form: Item = CCOCCCO ; Class = ?
Result: mid bin

Problem: Given ClCc1ccccc1Cl , name the class its flash point places it in.
Result: mid bin

Problem: Consider O=C1c2ccccc2C(=O)N1SC1CCCCC1 . To which flash point class does it belong?
Result: high bin

Problem: Class for CCOCCOCCOC(C)=O [2-(2-ethoxyethoxy)ethyl acetate] ?
Result: high bin

Problem: Consider C1N2CN3CN1CN(C2)C3 [1,3,5,7-tetrazatricyclo[3.3.1.13,7]decane] . To which flash point class does it belong?
Result: high bin

Problem: Class (by measured flash point) for CCCCOCC(C)O (configuration not stated)
Result: mid bin

Problem: Classify this molecule: CC(=O)OCC(COC(C)=O)OC(C)=O [2,3-diacetyloxypropyl acetate]
Result: high bin

Problem: Quick check: band for Nc1ccc(Cc2ccc(N)c(Cl)c2)cc1Cl [4-[(4-amino-3-chlorophenyl)methyl]-2-chloroaniline]
Result: high bin

Problem: Band for the recorded flash point of CC[N+](=O)[O-] ?
Result: low bin

Problem: // bin(item) where item = O=[N+]([O-])c1cccc(Cl)c1Cl
Result: high bin
